Tested on: AGS cell strain
Experiment notes: Cell growth test (CCK-8 assay) after transfection of BART miRNA mimics
Assay type: cell-based
Assay setup: mimic 10 nM, 72 hours after transfection, relative to scrambled control (=1), n=9
Description: An AGS cell strain (Korean Cell Line Bank), which is a stomach cancer cell strain, was cultured in an RPMI1640 (Gibco) culture medium including 10% fetal bovine serum. […] To investigate the effect of individual EBV BART miRNAs on the AGS cell strain, the synthesized miRNAs were transfected to the AGS cell strain and, after 72 hours, cells were counted by CCK-8 assay. […]
Could you please report measured Relative Cell Growth for the items listed next?
Please give only the number in your answer, with no unit.

input: So what's the measured Relative Cell Growth for this one? BART8-5p: EBV BART miRNA mimic, double stranded RNA; sense SEQ NO: 45, antisense SEQ NO: 46 (sense UACGGUUUCCUAGAUUGUACAG; antisense CUGUACAAUCUAGGAAACCGUA; chemistry not given here)
output: 1.448

input: Request the reported Relative Cell Growth associated with BART7-5p: EBV BART miRNA mimic, double stranded RNA; sense SEQ NO: 41, antisense SEQ NO: 42 (sense CCUGGACCUUGACUAUGAAACA; antisense UGUUUCAUAGUCAAGGUCCAGG; chemistry not given here)
output: 1.539

input: Query (substance): BART1-5p: EBV BART miRNA mimic, double stranded RNA; sense SEQ NO: 9, antisense SEQ NO: 10 (sense UCUUAGUGGAAGUGACGUGCUGUG; antisense CACAGCACGUCACUUCCACUAAGA; chemistry not given here) ; field requested: Relative Cell Growth
output: 1.141

input: Requested read-out: Relative Cell Growth. Entry: BART22-3p: EBV BART miRNA mimic, double stranded RNA; sense SEQ NO: 55, antisense SEQ NO: 56 (sense UUACAAAGUCAUGGUCUAGUAGU; antisense ACUACUAGACCAUGACUUUGUAA; chemistry not given here)
output: 1.495

input: Given BART17-5p: EBV BART miRNA mimic, double stranded RNA; sense SEQ NO: 25, antisense SEQ NO: 26 (sense UAAGAGGACGCAGGCAUACAAG; antisense CUUGUAUGCCUGCGUCCUCUUA; chemistry not given here) , state its recorded Relative Cell Growth.
output: 0.9551

input: For the substance shown here, BART21-3p: EBV BART miRNA mimic, double stranded RNA; sense SEQ NO: 35, antisense SEQ NO: 36 (sense CUAGUUGUGCCCACUGGUGUUU; antisense AAACACCAGUGGGCACAACUAG; chemistry not given here) , give the reported Relative Cell Growth.
output: 1.215

input: Name the recorded Relative Cell Growth for BART18-5p: EBV BART miRNA mimic, double stranded RNA; sense SEQ NO: 37, antisense SEQ NO: 38 (sense UCAAGUUCGCACUUCCUAUACA; antisense UGUAUAGGAAGUGCGAACUUGA; chemistry not given here) .
output: 1.395

input: Please give the measured Relative Cell Growth for this substance: BART21-5p: EBV BART miRNA mimic, double stranded RNA; sense SEQ NO: 33, antisense SEQ NO: 34 (sense UCACUAGUGAAGGCAACUAAC; antisense GUUAGUUGCCUUCACUAGUGA; chemistry not given here)
output: 1.304

====

Tested on: AGS cell strain
Experiment notes: Measurement of apoptosis (Annexin V staining, FACS)
Format: cell-based
Assay setup: AGS; mimic 10 nM, 10 uM 5-FU 24 h after transfection, then 48 hours; Annexin V; relative to scrambled control (=1); n=9
Observation type: Relative Apoptotic cell
# print the numeric value only

input: Query: Relative Apoptotic cell; subject: BART16-5p: EBV BART miRNA mimic, double stranded RNA; sense SEQ NO: 21, antisense SEQ NO: 22 (sense UUAGAUAGAGUGGGUGUGUGCUCU; antisense AGAGCACACACCCACUCUAUCUAA; chemistry not given here)
output: 1.312

input: Requested read-out: Relative Apoptotic cell. Entry: BART11-5p: EBV BART miRNA mimic, double stranded RNA; sense SEQ NO: 61, antisense SEQ NO: 62 (sense UCAGACAGUUUGGUGCGCUAGUUG; antisense CAACUAGCGCACCAAACUGUCUGA; chemistry not given here)
output: 1.006
